// data source = patent US11655235B2

IC50 for assorted compounds
# system-tested: recombinant human PREP (Homo sapiens)
# Construct: purchased R&D System
# Sequence (P48147 whole entry): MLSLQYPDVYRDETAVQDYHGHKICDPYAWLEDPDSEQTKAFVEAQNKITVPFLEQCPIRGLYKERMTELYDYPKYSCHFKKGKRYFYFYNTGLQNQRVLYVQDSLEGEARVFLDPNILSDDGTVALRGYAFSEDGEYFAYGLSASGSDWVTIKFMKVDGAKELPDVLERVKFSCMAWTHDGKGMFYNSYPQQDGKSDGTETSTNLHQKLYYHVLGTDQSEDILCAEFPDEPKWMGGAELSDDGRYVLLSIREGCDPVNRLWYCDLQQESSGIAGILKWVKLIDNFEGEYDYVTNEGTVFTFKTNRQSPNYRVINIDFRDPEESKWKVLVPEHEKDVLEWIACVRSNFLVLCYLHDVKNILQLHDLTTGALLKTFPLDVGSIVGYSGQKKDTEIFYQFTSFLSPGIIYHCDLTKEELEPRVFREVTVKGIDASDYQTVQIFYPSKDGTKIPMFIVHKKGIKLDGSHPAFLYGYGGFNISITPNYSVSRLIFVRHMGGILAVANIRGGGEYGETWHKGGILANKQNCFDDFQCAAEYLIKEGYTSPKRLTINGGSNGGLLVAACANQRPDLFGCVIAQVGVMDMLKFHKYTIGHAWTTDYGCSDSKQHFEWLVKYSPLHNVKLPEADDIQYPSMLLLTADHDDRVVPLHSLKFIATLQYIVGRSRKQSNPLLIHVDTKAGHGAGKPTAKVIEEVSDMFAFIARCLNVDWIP
# assay: PREP inhibition, fluorogenic substrate Z-Gly-Pro-AMC
# Type: biochemical
# measurement-parameters: Inhibitory Activity (IC50, nM) PREP, 25° C., Z-Gly-Pro-AMC substrate

N#C[C@@H]1CC(F)(F)CN1C(=O)CN1CC[C@H](Nc2cccc3ccoc23)C1 :: > 100000 nM
N#C[C@@H]1CC(F)(F)CN1C(=O)CN1CC[C@H](Nc2cccc3ccsc23)C1 :: > 100000 nM

Please turn your attention to the following entry.
Task: Give its IC50 value. Item: N#C[C@@H]1CC(F)(F)CN1C(=O)CN1CC[C@H](Nc2cccc3sccc23)C1
Result: > 100000 nM
